# tested on: T1, MUC16 nonglycosylated peptide 2 (human)
# T1 construct: Peptide used to elicit the 4H11 antibody; also called nonglycosylated MUC16 peptide 2
# T1 peptide: CTLDRSSVLVDGYSPNRNE
# protocol notes: sandwich ELISA on 'MUC16 Nonglycosylated Peptide2'; Blank 0.029
quantity measured: ELISA signal
// return just the number, without any unit appended

Return reported ELISA signal; argument: 4H11 (antibody, V domains shown) VH: EVKLQESGGGFVKPGGSLKVSCAASGFTFSSYAMSWVRLSPEMRLEWVATISSAGGYIFYSDSVQGRFTISRDNAKNTLHLQMGSLRSGDTAMYYCARQGFGNYGDYYAMDYWGQGTTVTVSS VL: DIELTQSPSSLAVSAGEKVTMSCKSSQSLLNSRTRKNQLAWYQQKPGQSPELLIYWASTRQSGVPDRFTGSGSGTDFTLTISSVQAEDLAVYYCQQSYNLLTFGPGTKLEVK
2.14
